Item-by-item account of MIC
System: vancomycin-middle resistant Staphylococcus aureus Mu50 strain
test_details: In vitro antibacterial activity assay (MIC, CLSI dilution method)
Type: cell-based
measurement_setup: Staphylococcus aureus; S. aureus Mu50, 37° C., 16 h; read-out: MIC Mu50
assay_endpoint: MIC (mg/L)

[[record]]
compound = "CCCCCCCCCCNCCN[C@@]1(C)C[C@H](O[C@H]2[C@H](Oc3c4cc5cc3Oc3ccc(cc3Cl)[C@@H](O)[C@@H](NC(=O)[C@@H](CC(C)C)NC)C(=O)N[C@@H](CC(N)=O)C(=O)N[C@H]5C(=O)N[C@H]3C(=O)N[C@H](C(=O)N[C@H](C(=O)O)c5cc(O)c(CNCP(=O)(O)O)c(O)c5-c5cc3ccc5O)[C@H](O)c3ccc(c(Cl)c3)O4)O[C@H](CO)[C@@H](O)[C@@H]2O)O[C@@H](C)[C@H]1O [Tela., telavancin, reference compound]"
unit_descriptor = "mg/L"
experimental_value = 1

[[record]]
compound = "CN[C@H](CC(C)C)C(=O)N[C@H]1C(=O)N[C@@H](CC(N)=O)C(=O)N[C@H]2C(=O)N[C@H]3C(=O)N[C@H](C(=O)N[C@H](C(=O)O)c4cc(O)c(CNCCCNC(=O)[C@H](O)[C@@H](O)[C@H](O)[C@H](O)CO)c(O)c4-c4cc3ccc4O)[C@H](O)c3ccc(c(Cl)c3)Oc3cc2cc(c3OC2O[C@H](CO)C(O)C(O)[C@H]2O[C@@H]2CC(C)[C@@H](O)C(C)(NCc3ccc(C#C[Si](C)(C)C)cc3)C2)Oc2ccc(cc2Cl)[C@H]1O (stereo partly shown)"
unit_descriptor = "mg/L"
experimental_value = 2

[[record]]
compound = "CN[C@H](CC(C)C)C(=O)N[C@H]1C(=O)N[C@@H](CC(N)=O)C(=O)N[C@H]2C(=O)N[C@H]3C(=O)N[C@H](C(=O)N[C@H](C(=O)O)c4cc(O)cc(O)c4-c4cc3ccc4O)[C@H](O)c3ccc(c(Cl)c3)Oc3cc2cc(c3O[C@@H]2O[C@H](CO)[C@@H](O)[C@H](O)[C@H]2O[C@H]2C[C@](C)(N)[C@H](O)[C@H](C)O2)Oc2ccc(cc2Cl)[C@H]1O"
unit_descriptor = "mg/L"
experimental_value = 8

[[record]]
compound = "CN[C@H](CC(C)C)C(=O)N[C@H]1C(=O)N[C@@H](CC(N)=O)C(=O)N[C@H]2C(=O)N[C@@H]3C(=O)N[C@H](C(=O)N[C@H](C(=O)O)c4cc(O)c(CNC5C(O)OC(CO)[C@H](O)[C@@H]5O)c(O)c4-c4cc3ccc4O)[C@H](O)c3ccc(c(Cl)c3)Oc3cc2cc(c3O[C@@H]2O[C@H](CO)C(O)C(O)[C@H]2O[C@H]2CC(C)(NCc3ccc(C#C[Si](C)(C)C)cc3)[C@H](O)[C@H](C)O2)Oc2ccc(cc2Cl)[C@H]1O (stereo partly shown)"
unit_descriptor = "mg/L"
experimental_value = 2

